methodDescription: protection of differentiated C2C12 cells from simvastatin – single point, plate reader, primary screen (AID 602340);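 further: myotubes were challenged with 10 µM simvastatin during compound exposure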
protocolConditions: C2C12 myotubes + simvastatin, ATP luminescence, 48 h; at 7.49 µM; scaled: DMSO 0, geranylgeraniol control 100
In all, about 330,000 compounds went through this assay and about 2,600 (0.79%) were called active.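 How the source made its calls: active means mean ATP rescue above about 67%, or every replicate alone reaching that limit (limit read from the data, passing the limit was not always enough); inconclusive means no clear call, values can overlap the other calls; inactive means mean under the limit and some replicate under it.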 The full list was thinned out, with actives kept by preference.
Choose the fitting class; nothing outside yes (1) for active, no (0) for inactive is accepted.

Completed entries (count: 6):
Cc1ccc(C2=CSC3=NS(=O)(=O)CCN23)cc1C
no (0)
CNC(=O)C[C@H]1CC[C@@H]2[C@H](COc3ccc(NC(=O)C(C)C)cc3C(=O)N2C)O1
no (0)
O=C(NN=Cc1ccccc1O)C(=O)NN=Cc1ccccc1O
no (0)
Cc1noc(C)c1NC(=O)N(C)C[C@H]1Oc2ccc(NC(=O)Cn3cnnn3)cc2CC(=O)N([C@H](C)CO)C[C@@H]1C
no (0)
CCOC(=O)C1CCN(C(=O)CSc2cc(=O)n(C)c3ccccc23)CC1
no (0)
COc1ccc2nc(N3C(=O)C(O)=C(C(=O)c4ccco4)C3c3ccco3)sc2c1 (centres undefined)
no (0)

Then there is this compound:
In this assay, the call recorded for "CO[C@@H]1CN(C)C(=O)c2cc(NS(=O)(=O)c3ccc(C)cc3)ccc2OC[C@H](C)N(Cc2nccs2)C[C@@H]1C" was what?
no (0)

====

methodDescription: protection of differentiated C2C12 cells from simvastatin – single point, plate reader, primary screen (AID 602340);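 further: myotubes were challenged with 10 µM simvastatin during compound exposure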
protocolConditions: C2C12 myotubes + simvastatin, ATP luminescence, 48 h; at 7.49 µM; scaled: DMSO 0, geranylgeraniol control 100
The campaign covered roughly 330,000 compounds. About 2,600 (0.79%) were called active.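 The calls were made as follows: active = mean ATP rescue above about 67%, or every replicate alone reaching that limit (limit read from the data, passing the limit was not always enough); inconclusive = no clear call, values can overlap the other calls; inactive = mean under the limit and some replicate under it.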 The list comes from a sample in which actives are over-represented; it also holds close analogues and randomly drawn compounds.
Form entry, call: pick from T (active), F (inactive)

As a guide, the following entries are already answered.
COCC(=O)Nc1ccc2c(c1)C(=O)N(C)[C@@H]1CC[C@H](CC(=O)NCC3CCCCC3)O[C@H]1CO2
F
CNC(=O)C[C@H]1CC[C@@H]2[C@H](COc3ccc(NC(=O)Nc4cccc(F)c4)cc3C(=O)N2C)O1
F
C[C@@H]1CN([C@H](C)CO)C(=O)c2ccccc2-c2ccccc2CO[C@@H]1CN(C)S(=O)(=O)CC(F)(F)F
F
O=C(Nc1ccc(Cl)cc1)c1cc2nc(C3CC3)cc(C(F)(F)F)n2n1
T
O=C(Nc1ccccc1-c1ccccc1)c1ccccc1[N+](=O)[O-]
F
Fc1ccccc1OCCCCn1cncn1
T
O=c1c2ccccc2ncn1CCCCOc1ccccc1F
F
O=C(O)c1ccccc1NC(=S)NC(NC(=O)c1ccccc1[N+](=O)[O-])C(Cl)(Cl)Cl (stereo not given)
T
CCN1CCN(CCCCOc2ccccc2F)CC1
F

Now take the following compound into account.
Dear colleague, could you share the recorded outcome for "O=C(Nc1ccccc1[N+](=O)[O-])C1C(c2ccccc2)=C1c1ccccc1" when you have a moment?
F

====

methodDescription: protection of differentiated C2C12 cells from simvastatin – single point, plate reader, primary screen (AID 602340);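 further: myotubes were challenged with 10 µM simvastatin during compound exposure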
protocolConditions: C2C12 myotubes + simvastatin, ATP luminescence, 48 h; at 7.49 µM; active compounds read high; scaled: DMSO 0, geranylgeraniol control 100
Out of some 330,000 compounds screened, about 2,600 (0.79%) were called active. The sample holds actives, similar compounds and a random draw of the others, so the mix is not that of the screen.
Recorded rescue of ATP level, one value per entry.
Please reply with the bare figure in % and do not write the unit itself.

Sample "CO[C@@H]1CN(C)C(=O)c2ccc(NC(=O)c3ccc(F)cc3)cc2OC[C@H](C)NC[C@@H]1C" — what was its rescue of ATP level?
-3.77

Queued: "Cc1ccc(S(=O)(=O)NCCC(=O)Nc2ccc(C)c(Cl)c2)cc1C"
1.52

Let us now turn to "Oc1ccc(-c2onc3ccc(Cl)cc23)cc1"
108

Same lookup for Nc1ccc(C(=O)OCC(=O)NC2CCCc3ccccc32)cc1[N+](=O)[O-] (centres undefined) , please.
150

Another: "Cc1noc(C)c1NC(=O)N(C)C[C@H]1Oc2c(NC(=O)c3nc4ccccc4s3)cccc2C(=O)N([C@@H](C)CO)C[C@@H]1C"
-9.27

And then "CC(C)CC#Cc1cnc2c(c1)C(=O)N([C@H](C)CO)C[C@H](C)[C@H](CN(C)CC1CCOCC1)O2" , what is it?
17.7

What do we get for "C[C@H]1CN([C@@H](C)CO)C(=O)c2cc(C#CC3CCCC3)cnc2O[C@H]1CN(C)C(=O)c1ccncc1" ?
-53.3

Likewise for "OCCCNc1nc(-c2ccccc2)c2cc(Cl)ccc2n1" ?
1.1

// next record "NC(N)=Nc1nc(-c2ccccc2)c2cc(Cl)ccc2n1"
-791

Now try "C[C@@H]1CN([C@H](C)CO)C(=O)c2cc(C#CC3CC3)cnc2O[C@@H]1CN(C)Cc1cccc(C(=O)O)c1" .
-0.6

Also "CN1CCN(CCCNC(=O)c2ccc(/C=C3\Oc4ccccc4N(Cc4ccc(Cl)cc4)C3=O)cc2)CC1" ?
88.6

What do you have for "CO[C@@H]1CN(C)C(=O)c2cc(NS(=O)(=O)CC(F)(F)F)ccc2OC[C@@H](C)N(Cc2ccccn2)C[C@H]1C" ?
-12.7

For "Cc1noc(C)c1NC(=O)N[C@H]1CC[C@H](CC(=O)N2CCCCC2)O[C@@H]1CO" then?
0.234

Please answer likewise for "CCc1nc2ccccc2n(CCOCCOCCn2c(=O)c(CC)nc3ccccc32)c1=O"
114

====

methodDescription: protection of differentiated C2C12 cells from simvastatin – single point, plate reader, primary screen (AID 602340);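 further: myotubes were challenged with 10 µM simvastatin during compound exposure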
protocolConditions: C2C12 myotubes + simvastatin, ATP luminescence, 48 h; at 7.49 µM; active compounds read high; scaled: DMSO 0, geranylgeraniol control 100
Out of some 330,000 compounds screened, about 2,600 (0.79%) were called active. The sample holds actives, similar compounds and a random draw of the others, so the mix is not that of the screen.
Decision: rescue of ATP level compared against 10%; not below it gives MET, below it gives NOT MET.

O=C(O)C1CC=CCC1C(=O)NCCc1ccccc1 (stereo not given)
MET

Does the compound "O=C(c1cc(-c2cccs2)on1)N1CCCCC1" have recorded rescue of ATP level that is 10% or more?
MET

Again, but for "CO[C@H]1CN(C)C(=O)c2cc(NC(=O)c3ccc4c(c3)OCO4)ccc2OC[C@@H](C)N(CCC(F)(F)F)C[C@H]1C"
NOT MET

Also, "CCC(=O)N(C)C[C@H]1[C@H](c2ccc(C3=CCCCC3)cc2)[C@@H](CO)N1C(C)=O" please.
MET

Please answer likewise for "C[C@@H]1CN([C@H](C)CO)C(=O)c2cc(NC(=O)Cc3cn(C)c4ccccc34)ccc2O[C@@H]1CN(C)S(=O)(=O)c1cccs1"
MET

====

methodDescription: protection of differentiated C2C12 cells from simvastatin – single point, plate reader, primary screen (AID 602340);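 further: myotubes were challenged with 10 µM simvastatin during compound exposure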
protocolConditions: C2C12 myotubes + simvastatin, ATP luminescence, 48 h; at 7.49 µM; active compounds read high; scaled: DMSO 0, geranylgeraniol control 100
About 2,600 (0.79%) of roughly 330,000 compounds were called active. The list comes from a sample in which actives are over-represented; it also holds close analogues and randomly drawn compounds.
// values below are reported rescue of ATP level
Give the value in % but do not write % after it.

COc1ccc(S(=O)(=O)N/N=C\c2ccc(OC)c(COc3ccc(C)cc3[N+](=O)[O-])c2)cc1
99.4
COCC(=O)N1C[C@H]2[C@@H](c3ccccc31)[C@@H](CO)N2C(=O)NC(C)C
17
O=C(N[C@@H]1CC[C@@H](CCNS(=O)(=O)Cc2ccccc2)O[C@@H]1CO)c1ccccc1F
-15

Recorded rescue of ATP level for "COc1ccccc1-c1ccc2c(c1)O[C@@H](CN(C)CC1CCOCC1)[C@H](C)CN([C@@H](C)CO)S2(=O)=O" , please?
-91.2

And then "CCCN1[C@H](C(=O)N[C@H](C)c2ccccc2)[C@@H](CO)[C@@H]2Cn3c(ccc(-c4cccc(F)c4)c3=O)[C@@H]21" , what is it?
25.4

Try this compound too: "O=C(C[C@@H]1CC[C@@H]2[C@H](COC[C@H](O)CN2C(=O)Nc2cccc(Cl)c2)O1)NCCCN1CCOCC1"
-20.2

What about "O=C(NCC[C@@H]1CC[C@H](NC(=O)Nc2cc(F)ccc2F)[C@@H](CO)O1)Nc1ccc(Cl)cc1" ?
2.28

"Cc1ccc(S(=O)(=O)N/N=C\c2cc3c(cc2[N+](=O)[O-])OCO3)cc1" ?
2.88

====

methodDescription: protection of differentiated C2C12 cells from simvastatin – single point, plate reader, primary screen (AID 602340);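 further: myotubes were challenged with 10 µM simvastatin during compound exposure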
protocolConditions: C2C12 myotubes + simvastatin, ATP luminescence, 48 h; at 7.49 µM; scaled: DMSO 0, geranylgeraniol control 100
Hit rate of the full screen: of about 330,000 compounds, about 2,600 (0.79%) were called active.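 Rule for the calls: active = mean ATP rescue above about 67%, or every replicate alone reaching that limit (limit read from the data, passing the limit was not always enough); inconclusive = no clear call, values can overlap the other calls; inactive = mean under the limit and some replicate under it.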 What follows is part of a selection rich in actives, with near analogues and random picks from the rest.
Respond only with the outcome that fits, drawn from True for active, False for inactive

Answered examples (3):
O=C(NCc1nnnn1-c1ccc(Cl)cc1)c1ccc2c(c1)OCO2
False
O=C(C[C@@H]1C=C[C@H](NC(=O)c2ccc3c(c2)OCO3)[C@H](CO)O1)NCc1ccc(Oc2ccccc2)cc1
False
COc1ccc(NC(=O)Nc2ccc3c(c2)C(=O)N([C@@H](C)CO)C[C@H](C)[C@H](CN(C)C(=O)Nc2ccccc2)OCCCC[C@@H](C)O3)cc1
False

Hi team, can someone confirm the assay call for "O=C(NCc1nnnn1-c1ccc(Cl)cc1)c1ccc([N+](=O)[O-])o1" ?
True

Would you kindly repeat that for "CCCC#Cc1cnc2c(c1)C(=O)N([C@H](C)CO)C[C@@H](C)[C@@H](CN(C)C(=O)Nc1ccccc1OC)O2" ?
False

// query: "Cc1nc(-c2ccc(F)cc2)c(CC(=O)N2CCN(S(=O)(=O)c3ccc(F)cc3)CC2)s1"
False

Further, for "CO[C@@H]1CN(C)C(=O)c2cc(NC(C)=O)ccc2OC[C@H](C)N(Cc2ccccc2F)C[C@@H]1C" ?
False
